- Assay system: Histamine H3 receptor (Homo sapiens)
- Sequence (Q9Y5N1 whole entry): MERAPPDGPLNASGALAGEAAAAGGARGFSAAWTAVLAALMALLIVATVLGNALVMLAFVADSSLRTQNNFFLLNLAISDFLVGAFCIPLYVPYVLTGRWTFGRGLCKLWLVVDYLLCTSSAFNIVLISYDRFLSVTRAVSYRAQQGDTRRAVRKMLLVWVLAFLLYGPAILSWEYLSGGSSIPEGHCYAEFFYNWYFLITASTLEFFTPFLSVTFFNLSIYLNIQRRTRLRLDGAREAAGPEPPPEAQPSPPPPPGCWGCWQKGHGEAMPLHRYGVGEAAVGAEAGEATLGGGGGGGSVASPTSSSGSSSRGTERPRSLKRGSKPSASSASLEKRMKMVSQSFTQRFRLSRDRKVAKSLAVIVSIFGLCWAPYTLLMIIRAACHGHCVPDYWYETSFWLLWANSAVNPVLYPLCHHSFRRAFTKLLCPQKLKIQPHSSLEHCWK
- Protocol: Binding affinity towards cloned human H3L receptor
Bucketed by reported Ki, buckets being bin 0 = under 50 nM, bin 1 = from 50 nM up to 400 nM, bin 2 = 400 nM and over

For orientation, consider the following solved cases.
CN(C)CCCNc1c2c(nc3ccccc13)CCCCC2 : bin 0
c1ccc2c(NCCCn3ccnc3)c3c(nc2c1)CCCCC3 : bin 2
C(#Cc1c2c(nc3ccccc13)CCCCC2)CCN1CCCCC1 : bin 1

Q. Any idea which band c1ccc2c(NCCCN3CCCC3)c3c(nc2c1)CCCCC3 is in?
A. bin 0

Q. Any idea which band C(#Cc1c2c(nc3ccccc13)CCCCC2)CCN1CCCCCC1 is in?
A. bin 2

Q. Any idea which band CC(C)(C)OC(=O)N[C@H]1[C@@H]2CN(CCCNc3c4c(nc5ccccc35)CCCCC4)C[C@@H]21 is in?
A. bin 0

Q. Any idea which band C(=C/c1c2c(nc3ccccc13)CCCCC2)/CCN1CCCCC1 is in?
A. bin 1

Q. Any idea which band CN1CCN(CCC#Cc2c3c(nc4ccccc24)CCCCC3)CC1 is in?
A. bin 2

Q. Any idea which band CC(=O)N(CCCN(C)C)c1c2c(nc3ccccc13)CCCCC2 is in?
A. bin 2

Q. Any idea which band OC[C@H]1CCN(CCC#Cc2c3c(nc4ccccc24)CCCCC3)C1 is in?
A. bin 2

Q. Any idea which band C(#Cc1c2c(nc3ccccc13)CCCCC2)CCN1CCCC1 is in?
A. bin 1

Q. Any idea which band c1ccc2c(N3CCCNCC3)c3c(nc2c1)CCCCC3 is in?
A. bin 2

* * *

Hi! I'm sharing some Ki results obtained with Histamine H1 receptor (Homo sapiens, UniProt P35367).
Sequence (P35367 whole entry): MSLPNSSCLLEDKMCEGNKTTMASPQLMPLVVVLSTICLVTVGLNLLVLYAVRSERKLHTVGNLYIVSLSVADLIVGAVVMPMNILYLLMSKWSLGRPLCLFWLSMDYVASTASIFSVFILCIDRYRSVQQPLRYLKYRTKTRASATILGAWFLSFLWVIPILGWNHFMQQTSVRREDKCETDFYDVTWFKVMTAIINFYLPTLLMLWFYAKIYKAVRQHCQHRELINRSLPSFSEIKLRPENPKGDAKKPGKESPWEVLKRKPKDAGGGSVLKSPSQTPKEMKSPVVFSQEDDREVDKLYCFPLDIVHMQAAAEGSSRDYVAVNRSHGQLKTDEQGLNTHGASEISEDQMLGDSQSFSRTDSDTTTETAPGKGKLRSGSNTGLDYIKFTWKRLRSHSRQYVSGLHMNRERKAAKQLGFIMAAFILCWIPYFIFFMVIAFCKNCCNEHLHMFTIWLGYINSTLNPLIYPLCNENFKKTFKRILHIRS
Unit µM implied. Number only.

Consider the following illustrative entries.
C(#Cc1c2c(nc3ccccc13)CCCCC2)CCN1CCCCC1 : 1
CN1CCCC1CCNc1c2c(nc3ccccc13)CCCCC2 (stereo not drawn) : 4.08

Next compound, Ki to be filled in.
Q. Entry c1ccc2c(NCCCN3CCCC3)c3c(nc2c1)CCCCC3 , system Histamine H1 receptor (Homo sapiens, UniProt P35367): what Ki was measured?
A. 15.7

* * *

- Assay system: Histamine H3 receptor (Rattus norvegicus, UniProt Q9QYN8)
- Sequence (Q9QYN8 whole entry): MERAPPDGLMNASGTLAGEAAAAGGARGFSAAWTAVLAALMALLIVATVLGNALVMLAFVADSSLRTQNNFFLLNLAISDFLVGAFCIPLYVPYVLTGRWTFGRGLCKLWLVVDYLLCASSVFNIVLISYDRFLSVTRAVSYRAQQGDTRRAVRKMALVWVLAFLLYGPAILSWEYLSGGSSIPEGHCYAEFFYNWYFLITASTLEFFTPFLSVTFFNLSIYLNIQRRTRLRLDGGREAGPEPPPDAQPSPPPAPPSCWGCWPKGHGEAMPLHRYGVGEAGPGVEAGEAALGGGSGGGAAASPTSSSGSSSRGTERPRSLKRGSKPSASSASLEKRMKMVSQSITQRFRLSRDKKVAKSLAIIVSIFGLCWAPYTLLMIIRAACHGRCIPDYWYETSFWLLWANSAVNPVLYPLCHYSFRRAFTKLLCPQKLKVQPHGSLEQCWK
pKi: −log10 of the molar value.
Attribute measured: pKi

CC(C)(C)OC(=O)N1CCN(c2c3c(nc4ccccc24)CCCCC3)CC1 : < 6.00
C(#Cc1c2c(nc3ccccc13)CCCCC2)CCN1CCOCC1 : < 6.00

Q. Fill in the blank: the reported pKi of CN1CCCC1CCNc1c2c(nc3ccccc13)CCCCC2 (configuration not stated) is ____.
A. 7.74

Q. Fill in the blank: the reported pKi of CC(C)(C)OC(=O)N[C@H]1[C@@H]2CN(CCCNc3c4c(nc5ccccc35)CCCCC4)C[C@@H]21 is ____.
A. 7.29

* * *

- Assay system: Histamine H3 receptor (Rattus norvegicus)
Attribute measured: pKi
// scale note: pKi = -log10(conc_M); give the bare number

Consider the following illustrative entries.
C(#Cc1c2c(nc3ccccc13)CCCCCC2)CCN1CCCCC1 : 6.19
c1ccc2c(NCCCN3CCOCC3)c3c(nc2c1)CCCCC3 : 6.40

Q. Entry CN1CCN(CCCNc2c3c(nc4ccccc24)CCCCC3)CC1 , system Histamine H3 receptor (Rattus norvegicus): what pKi was measured?
A. 7.01

* * *

Measured Ki, listed per entry.
- Assay system: UniProt:Q9Y5N1
- Protocol: Compound was tested for its binding affinity towards human H3L receptor
Unit nM implied. Number only.

CN(C)CCCNc1c2c(nc3ccccc13)CCCCC2 : 9.7

Q. Fill in the blank: the reported Ki of c1ccc2c(NCCCN3CCCC3)c3c(nc2c1)CCCCC3 is ____.
A. 6.6

Q. Fill in the blank: the reported Ki of CN1CCCC1CCNc1c2c(nc3ccccc13)CCCCC2 (centres undefined) is ____.
A. 6.6

Q. Fill in the blank: the reported Ki of C(#Cc1c2c(nc3ccccc13)CCCCC2)CCN1CCCCC1 is ____.
A. 80

* * *

Measured pKi, listed per entry.
- Assay system: Histamine H3 receptor (Homo sapiens)
- Protocol: Binding affinity towards cloned human H3L receptor
// scale note: pKi = -log10(conc_M); give the bare number

CN(C)CCCNc1c2c(nc3ccccc13)CCSC2 : 7.27
N[C@@H]1[C@H]2CN(CCCNc3c4c(nc5ccccc35)CCCCC4)C[C@@H]12 : 7.35
CN(C)CCCCNc1c2c(nc3ccccc13)CCCCC2 : 7.36

Q. Fill in the blank: the reported pKi of C(#Cc1c2c(nc3ccccc13)CCCCCC2)CCN1CCCCC1 is ____.
A. 6.80

Q. Fill in the blank: the reported pKi of OC[C@@H]1CCN(CCC#Cc2c3c(nc4ccccc24)CCCCC3)C1 is ____.
A. 6.60

Q. Fill in the blank: the reported pKi of c1ccc2c(NCCCN3CCOCC3)c3c(nc2c1)CCCCC3 is ____.
A. 6.12

Q. Fill in the blank: the reported pKi of CN(C)CCNc1c2c(nc3ccccc13)CCCCC2 is ____.
A. 7.32

Q. Fill in the blank: the reported pKi of CN1CCCC1CCNc1c2c(nc3ccccc13)CCCCC2 (stereo unspecified) is ____.
A. 8.18

* * *

Hi! I'm sharing some Ki results obtained with Histamine H3 receptor (Rattus norvegicus).

Consider the following illustrative entries.
C(#Cc1c2c(nc3ccccc13)CCCCC2)CCN1CCCCCC1 : > 1000 nM
CC(C)(C)OC(=O)N1CCCN(c2c3c(nc4ccccc24)CCCCC3)CC1 : > 1000 nM

Next molecule, Ki to be filled in.
Q. Fill in the blank: the reported Ki of CN1CCN(CCC#Cc2c3c(nc4ccccc24)CCCCC3)CC1 is ____.
A. > 1000 nM

* * *

Measured Ki, listed per entry.
- Assay system: Histamine H3 receptor (Rattus norvegicus, UniProt Q9QYN8)

Consider the following illustrative entries.
c1ccc2c(NCCCn3ccnc3)c3c(nc2c1)CCCCC3 : > 1 µM
OC[C@H]1CCN(CCC#Cc2c3c(nc4ccccc24)CCCCC3)C1 : > 1 µM

Q. Entry CC(=O)N(CCCN(C)C)c1c2c(nc3ccccc13)CCCCC2 , system Histamine H3 receptor (Rattus norvegicus, UniProt Q9QYN8): what Ki was measured?
A. > 1 µM

* * *

Measured Ki, listed per entry.
- Assay system: UniProt Q9Y5N1
- Protocol: Binding affinity towards cloned human H3L receptor

Q. Entry CC(C)(C)OC(=O)N1CCCN(c2c3c(nc4ccccc24)CCCCC3)CC1 , system UniProt Q9Y5N1: what Ki was measured?
A. > 1 µM

Q. Entry CC(C)(C)OC(=O)N1CCN(c2c3c(nc4ccccc24)CCCCC3)CC1 , system UniProt Q9Y5N1: what Ki was measured?
A. > 1 µM

Q. Entry C(#Cc1c2c(nc3ccccc13)CCCCC2)CCN1CCOCC1 , system UniProt Q9Y5N1: what Ki was measured?
A. > 1 µM

Source listed as ChEMBL document CHEMBL1136076.
